- System: T1, dUnr CSD9 (Drosophila melanogaster, UniProt B7Z0E2 898-990)
- T1 sequence: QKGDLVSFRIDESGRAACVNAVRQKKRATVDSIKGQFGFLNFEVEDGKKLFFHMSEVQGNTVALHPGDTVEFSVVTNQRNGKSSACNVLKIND
- Method: NMR titration; joint range given for CSD78 and CSD9; EMSA: 20 mM HEPES/NaOH pH 7.5, 50 mM NaCl, 10% glycerol, 2 mM DTT, 1 h at 4 C, ~25 nM RNA; NMR: 20 mM NaP pH 6.5, 50 mM NaCl, 1 mM DTT (10 mM for CSD12), 10% D2O, 298 K
- Assay Context: protein: recombinant; tags: tag cleaved with TEV
pKd: −log10 of the molar value.
Outcome Measure: pKd

Prompt line: What does the record list as pKd for AAAAAAAUG (ssRNA) [9-mer RNA from roX2 SL6 loop] ?
Response line: ~3.61
